Reference source for all entries: BindingDB's records for doi:10.1124/jpet.102.045674

testedTarget: Alpha-1A adrenergic receptor (Rattus norvegicus, UniProt P43140)
Sequence (P43140 whole entry): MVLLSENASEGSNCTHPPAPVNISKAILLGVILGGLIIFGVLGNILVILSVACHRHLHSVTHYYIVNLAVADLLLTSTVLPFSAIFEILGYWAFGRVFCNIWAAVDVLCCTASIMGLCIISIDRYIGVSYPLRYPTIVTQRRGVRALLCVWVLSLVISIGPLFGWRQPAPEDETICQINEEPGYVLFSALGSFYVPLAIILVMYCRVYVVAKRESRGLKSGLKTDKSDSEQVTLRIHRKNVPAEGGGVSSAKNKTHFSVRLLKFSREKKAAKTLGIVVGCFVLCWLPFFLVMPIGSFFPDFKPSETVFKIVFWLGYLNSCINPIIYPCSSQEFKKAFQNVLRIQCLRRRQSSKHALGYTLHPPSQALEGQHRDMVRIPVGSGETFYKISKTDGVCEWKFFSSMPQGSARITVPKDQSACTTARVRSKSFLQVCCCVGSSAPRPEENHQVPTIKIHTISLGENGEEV
measureName: Ki

>>> reportedmeasurement("CC(C)(C)c1ccc(NC(=O)N2CCN(c3ncccc3Cl)CC2)cc1 [BCTC]")
"> 10 µM"
